# Tested on: RSV strain A2
# protocolSummary: RSV antiviral cytoprotection assay in Hep2 cells (RSV-induced cytopathic effect, Cell TiterGlo)
# Format: cell-based, Respiratory Syncytial Virus (RSV)
# experimentalConditions: human respiratory syncytial virus, HEp-2, 0.5 μM compound; RSV A2-infected Hep2 cells; % inhibition calculated from 4-parameter dose response curve, normalized to 0% and 100%; read-out: Percent inhibition at 0.5 μM
readoutKind: inhibition at 0.5 µM
I'd appreciate it if you included the unit after the number.

Observe how each entry below is paired with its result.
>>> df
                                   compound           readoutkind  observedvalue
0  Cc1cn2nc([C@@H]3CCCCN3C(=O)c3ccc4ccccc4n3)cc2nc1N1CC[C@H](N)C1 [Compound 96]  inhibition at 0.5 µM            65%
1  Cc1cn2nc([C@@H]3CCCCN3C(=O)c3ccc(F)c(F)c3C)cc2nc1N1C[C@@H](C#N)[C@@H](O)C1 [Compound 149]  inhibition at 0.5 µM           100%
2  Cc1cn2nc([C@@H]3CCCCN3C(=O)c3c(Cl)nc4ccccn34)cc2nc1N1C[C@@H](C#N)[C@@H](O)C1 [Compound 136]  inhibition at 0.5 µM            83%
3  Cc1cn2nc([C@@H]3CCCCN3C(=O)c3ccc4cccnc4n3)cc2nc1N1CC[C@H](N)C1 [Compound 50]  inhibition at 0.5 µM            15%
4  COc1ccc(C(=O)N2CCCC[C@H]2c2cc3nc(N4C[C@@H](C#N)[C@@H](O)C4)c(C)cn3n2)c(F)c1 [Compound 126]  inhibition at 0.5 µM            82%

Now turn to the next compound.
Query (compound): COc1ccccc1C(=O)N1CCCC[C@H]1c1cc2nc(N3C[C@@H](C#N)[C@@H](O)C3)c(C)cn2n1 [Compound 113] ; field requested: inhibition at 0.5 µM
100%

Each recorded value in this set is attributed to patent US8946238B2.
